The origin of these recorded values is patent US20250025429A1.

ASSAY OVERVIEW: LNP characterisation by Zeta Sizer (particle size, polydispersity, charge)
Format: physicochemical
CONDITIONS: LNP with saRNA; lipid:DOPE:Cholesterol:DMG-PEG 35:20:43.5:1.5; N/P approximately 40/1
PROPERTY NAME: Polydispersity Index (PI)

Examples from the recorded data:
// lookup Polydispersity Index (PI) for CCCCCCC(CCCC)C(=O)OCCCCN(CCCCOC(=O)C(CCCC)CCCCCC)CCN1CCN(CCN)CC1 (centres unmarked)
0.15

Given the entry CCCCCCC(CCCC)C(=O)OCCCCN(CCCCOC(=O)C(CCCC)CCCCCC)CCN1CCN(CCNCCN)CC1 (centres unmarked) , report its measured Polydispersity Index (PI).
0.1

For CCCCCCC(CCCC)C(=O)OCCCCN(CCCCOC(=O)C(CCCC)CCCCCC)CCN1CCN(CCO)CC1 (centres unmarked) , what is its reported Polydispersity Index (PI)?
0.16

New cases:
Look at this compound and give its reported Polydispersity Index (PI). CCCCCCCCCCC(O)CN(CCN1CCN(CCN(CC(O)CCCCCCCCCC)CC(O)CCCCCCCCCC)CC1)CCN(CC(O)CCCCCCCCCC)CC(O)CCCCCCCCCC (centres unmarked) [Compound C12-200, reference compound]
0.27

Can you share its Polydispersity Index (PI)? I mean this compound: CCCCCCCCCCCCCCOC(=O)CCN(CCC(=O)OCCCCCCCCCCCCCC)CCN1CCN(CCN(CCC(=O)OCCCCCCCCCCCCCC)CCC(=O)OCCCCCCCCCCCCCC)CC1 [Comparator 1 (C1), reference compound]
0.16

###

ASSAY OVERVIEW: Body weight of mice in the in vivo study (tolerability)
CONDITIONS: Day 10; female SWISS mice, 1 μg LNP-formulated saRNA intramuscularly
Each entry below lists one item and its recorded Weight value.
# number only, unit g dropped from output

Item CCCCCCC(CCCC)C(=O)OCCCCN(CCCCOC(=O)C(CCCC)CCCCCC)CCN1CCN(CCO)CC1 (centres unmarked) has what recorded Weight?
27.57

Would you kindly share the measured Weight for CCCCCCC(CCCC)C(=O)OCCCCN(CCCCOC(=O)C(CCCC)CCCCCC)CCN1CCN(CCNCCN)CC1 (centres unmarked) ?
27.69

Which Weight value belongs to CCCCCCCCCCCCCCOC(=O)CCN(CCC(=O)OCCCCCCCCCCCCCC)CCN1CCN(CCN(CCC(=O)OCCCCCCCCCCCCCC)CCC(=O)OCCCCCCCCCCCCCC)CC1 [Comparator 1 (C1), reference compound] ?
27.17

State the recorded Weight for this entry: CCCCCCCCCCC(O)CN(CCN1CCN(CCN(CC(O)CCCCCCCCCC)CC(O)CCCCCCCCCC)CC1)CCN(CC(O)CCCCCCCCCC)CC(O)CCCCCCCCCC (centres unmarked) [Compound C12-200, reference compound]
29.23

Others:
# Weight lookup, item CCCCCCC(CCCC)C(=O)OCCCCN(CCCCOC(=O)C(CCCC)CCCCCC)CCN1CCN(CCN)CC1 (centres unmarked)
28.11

###

ASSAY OVERVIEW: Body weight of mice in the in vivo study (tolerability)
CONDITIONS: Day 0 (before injection); female SWISS mice, 1 μg LNP-formulated saRNA intramuscularly
PROPERTY NAME: Weight (g)
Reply with just the number (in g).

Below are worked cases with known answers.
// lookup Weight for CCCCCCC(CCCC)C(=O)OCCCCN(CCCCOC(=O)C(CCCC)CCCCCC)CCN1CCN(CCN)CC1 (centres unmarked)
26.84

Give its Weight value. Item: CCCCCCCCCCCCCCOC(=O)CCN(CCC(=O)OCCCCCCCCCCCCCC)CCN1CCN(CCN(CCC(=O)OCCCCCCCCCCCCCC)CCC(=O)OCCCCCCCCCCCCCC)CC1 [Comparator 1 (C1), reference compound]
26.56

Data request, read-out Weight, for CCCCCCC(CCCC)C(=O)OCCCCN(CCCCOC(=O)C(CCCC)CCCCCC)CCN1CCN(CCNCCN)CC1 (centres unmarked)
26.93

Bench note: what Weight did CCCCCCCCCCC(O)CN(CCN1CCN(CCN(CC(O)CCCCCCCCCC)CC(O)CCCCCCCCCC)CC1)CCN(CC(O)CCCCCCCCCC)CC(O)CCCCCCCCCC (centres unmarked) [Compound C12-200, reference compound] show?
28.61

Shift focus to the following entry.
May I ask what Weight has been recorded for CCCCCCC(CCCC)C(=O)OCCCCN(CCCCOC(=O)C(CCCC)CCCCCC)CCN1CCN(CCO)CC1 (centres unmarked) ?
27.96
